molecular target: serotonin transporter (Homo sapiens, UniProt P31645); construct: expressed in transfected cells; host or cells: HEK-293; assay: Serotonin reuptake inhibition in transporter-transfected HEK-293 cells ([3H]-5-HT); format: cell-based; details: compound 1 μM; [3H]-5-HT; relative to control without compound (100%), lower = more inhibition
Sequence (P31645 whole entry): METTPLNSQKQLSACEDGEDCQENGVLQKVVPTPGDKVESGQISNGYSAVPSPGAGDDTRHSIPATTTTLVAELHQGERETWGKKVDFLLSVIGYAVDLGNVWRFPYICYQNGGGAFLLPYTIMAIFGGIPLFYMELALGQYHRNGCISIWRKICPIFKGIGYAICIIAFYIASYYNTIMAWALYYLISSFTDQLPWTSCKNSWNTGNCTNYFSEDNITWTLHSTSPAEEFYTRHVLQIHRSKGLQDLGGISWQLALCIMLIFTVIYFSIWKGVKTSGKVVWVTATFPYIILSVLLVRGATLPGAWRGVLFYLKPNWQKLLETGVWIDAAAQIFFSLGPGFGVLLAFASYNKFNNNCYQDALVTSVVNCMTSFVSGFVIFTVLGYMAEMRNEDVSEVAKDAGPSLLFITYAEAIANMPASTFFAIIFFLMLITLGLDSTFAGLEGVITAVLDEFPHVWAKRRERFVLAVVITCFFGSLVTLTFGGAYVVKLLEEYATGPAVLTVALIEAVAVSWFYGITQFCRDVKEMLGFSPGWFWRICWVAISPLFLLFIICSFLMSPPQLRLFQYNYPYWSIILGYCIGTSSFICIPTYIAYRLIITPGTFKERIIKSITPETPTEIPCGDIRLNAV
Recorded Triple reuptake inhibition (Ratio %) SERT by entry
Give the value in % but do not write % after it.

Completed entries (count: 3):
Query string: Triple reuptake inhibition (Ratio %) SERT of `O=C(NCCN1CCC(Cc2ccccc2)CC1)c1cc2cc(C(F)(F)F)ccc2[nH]1` on serotonin transporter (Homo sapiens, UniProt P31645)?
Result string: 92.65

Query string: Triple reuptake inhibition (Ratio %) SERT of `O=C(NCCN1CCC(Cc2ccccc2)CC1)c1ccc[nH]1` on serotonin transporter (Homo sapiens, UniProt P31645)?
Result string: 98.97

Query string: Triple reuptake inhibition (Ratio %) SERT of `CC(C)(CN1CCC(Cc2ccccc2)CC1)NC(=O)c1cc2ccccc2[nH]1` on serotonin transporter (Homo sapiens, UniProt P31645)?
Result string: 90.64

New cases:
Query string: Triple reuptake inhibition (Ratio %) SERT of `O=C(NCCN1CCC(Cc2ccc(Cl)c(Cl)c2)CC1)c1ccc2cc(Br)ccc2c1` on serotonin transporter (Homo sapiens, UniProt P31645)?
Result string: 9.92

Query string: Triple reuptake inhibition (Ratio %) SERT of `CCCCOc1ccc(C(=O)NCCN2CCC(c3c[nH]c4ccccc34)CC2)cc1` on serotonin transporter (Homo sapiens, UniProt P31645)?
Result string: 17.44

Query string: Triple reuptake inhibition (Ratio %) SERT of `O=C(NCCN1CCC(Cc2ccc(Cl)c(Cl)c2)CC1)c1cc2cc(O)c(O)cc2[nH]1` on serotonin transporter (Homo sapiens, UniProt P31645)?
Result string: 10.79

Query string: Triple reuptake inhibition (Ratio %) SERT of `O=C(NCCN1CCC(c2ccc(Cl)c(Cl)c2)CC1)c1cc2ccccc2[nH]1` on serotonin transporter (Homo sapiens, UniProt P31645)?
Result string: 82.81

Query string: Triple reuptake inhibition (Ratio %) SERT of `COc1cc2cc(C(=O)NCCN3CCC(Cc4ccc(Cl)c(Cl)c4)CC3)[nH]c2cc1OC` on serotonin transporter (Homo sapiens, UniProt P31645)?
Result string: 5.27

====

target: dopamine transporter (Homo sapiens, UniProt Q01959); construct: expressed in transfected cells; host or cells: HEK-293; test: Dopamine reuptake inhibition in transporter-transfected HEK-293 cells ([3H]-DA); type: cell-based; conditions: compound 1 μM; 20-30 nM [3H]-DA; relative to control without compound (100%), lower = more inhibition
Sequence (Q01959 whole entry): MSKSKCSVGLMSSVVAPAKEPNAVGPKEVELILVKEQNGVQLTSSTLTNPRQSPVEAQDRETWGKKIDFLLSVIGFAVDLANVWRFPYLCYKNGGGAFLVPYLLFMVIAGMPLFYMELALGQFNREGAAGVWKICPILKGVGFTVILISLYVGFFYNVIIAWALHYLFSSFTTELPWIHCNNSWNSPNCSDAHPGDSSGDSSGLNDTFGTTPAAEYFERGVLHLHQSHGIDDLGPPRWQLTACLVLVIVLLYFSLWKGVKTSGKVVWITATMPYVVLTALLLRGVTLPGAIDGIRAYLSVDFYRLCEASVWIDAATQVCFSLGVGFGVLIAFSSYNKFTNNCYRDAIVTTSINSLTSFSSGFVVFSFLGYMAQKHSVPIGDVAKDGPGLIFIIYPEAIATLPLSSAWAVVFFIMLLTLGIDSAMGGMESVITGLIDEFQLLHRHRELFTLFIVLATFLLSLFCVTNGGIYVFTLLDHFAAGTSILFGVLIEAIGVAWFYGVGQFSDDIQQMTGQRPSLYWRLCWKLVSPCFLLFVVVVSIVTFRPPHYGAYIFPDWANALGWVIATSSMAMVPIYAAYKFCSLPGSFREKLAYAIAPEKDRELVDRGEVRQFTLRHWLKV
REPORTED ENDPOINT: Triple reuptake inhibition (Ratio %) DAT
Answer format: value, then unit.

Query string: Consider the compound shown here: `O=C(NCCN1CCN(c2cccc(C(F)(F)F)c2)CC1)c1cc2ccccc2[nH]1` What is its recorded Triple reuptake inhibition (Ratio %) DAT?
Result string: 94.30%

Query string: Consider the compound shown here: `COc1ccc2[nH]c(C(=O)NCCN3CCC(Cc4ccccc4)CC3)nc2c1` What is its recorded Triple reuptake inhibition (Ratio %) DAT?
Result string: 17.60%

Query string: Consider the compound shown here: `O=C(NCCN1CCN(Cc2ccc(Cl)c(Cl)c2)CC1)c1ccc(Cl)c(Cl)c1` What is its recorded Triple reuptake inhibition (Ratio %) DAT?
Result string: 75.29%

New cases:
Query string: Consider the compound shown here: `CN(CCNC(=O)c1cc2ccccc2[nH]1)Cc1ccc2ccccc2c1` What is its recorded Triple reuptake inhibition (Ratio %) DAT?
Result string: 90.63%

Query string: Consider the compound shown here: `O=C(NCCN1CCN(Cc2ccccc2)CC1)c1ccc(Cl)c(Cl)c1` What is its recorded Triple reuptake inhibition (Ratio %) DAT?
Result string: 85.21%

Origin of the recorded values: patent US20240018119A1
